# System Tested: Adrenergic receptor alpha-1 (Homo sapiens) (UniProt P35348+P25100+P35368)
# Method Notes: Dissociation constant for Alpha-1-adrenergic receptor was determined before and after addition of phentolamine
# Run Parameters: Oryctolagus cuniculus
Measured Kb by item
Write it as a number; the unit nM goes unstated.

Study these solved cases before continuing.
Ask: # Kb lookup, item COc1ccc(OC)c2c1CCC(N)C2 (stereo not given)
Result: 6

Ask: # Kb lookup, item COc1cccc2c1CCC(N)C2 (stereo not given)
Result: 7

Ask: # Kb lookup, item CNC1CCc2c(OC)ccc(OC)c2C1 (stereo not given)
Result: 11

Ask: # Kb lookup, item COc1cccc2c1CC(N)CC2 (stereo not given)
Result: 12

Continuing:
Ask: # Kb lookup, item CCNC1CCc2c(OC)ccc(I)c2C1 (stereo not given)
Result: 12

###

Measured pEC50 by item
# Method Notes: Alpha-1 adrenergic receptor activation causing vasoconstriction in the isolated rabbit ear artery
# Assay type: functional, tissue-based
# Run Parameters: Oryctolagus cuniculus
pEC50: −log10 of the molar value.

Study these solved cases before continuing.
Ask: # pEC50 lookup, item COc1cc2c(cc1OC)CC(N)CC2 (stereo not drawn)
Result: < 5.00

Ask: # pEC50 lookup, item NC1CCc2ccccc2C1 (stereo not drawn)
Result: < 4.52

Continuing:
Ask: # pEC50 lookup, item CCNC1CCc2ccc(OC)c(OC)c2C1 (stereo not drawn)
Result: < 5.00

###

# System Tested: Adrenergic receptor alpha-1 (Homo sapiens) (UniProt P35348+P25100+P35368)
# Method Notes: Dissociation constant for Alpha-1-adrenergic receptor was determined before and after addition of phentolamine
# Run Parameters: Oryctolagus cuniculus
Lab note: anything with Kb below 10 nM is marked Fulfilled; values at 10 nM or higher are marked Not fulfilled.

Ask: Is the reported Kb for CCNC1CCc2c(OC)ccc(OC)c2C1 (stereo not given) strictly below 10 nM?
Result: Fulfilled

Continuing:
Ask: Is the reported Kb for CCNC1CCc2c(OC)ccc(SC)c2C1 (stereo not given) strictly below 10 nM?
Result: Not fulfilled

Ask: Is the reported Kb for CCNC1CCc2c(I)ccc(OC)c2C1 (stereo not given) strictly below 10 nM?
Result: Not fulfilled

Ask: Is the reported Kb for CCNC1CCc2c(OC)ccc(Cl)c2C1 (stereo not given) strictly below 10 nM?
Result: Not fulfilled

###

# System Tested: Adrenergic receptor alpha-1 (Homo sapiens) (UniProt P35348+P25100+P35368)
# Method Notes: Dissociation constant for Alpha-1-adrenergic receptor was determined before and after addition of phentolamine
# Run Parameters: Oryctolagus cuniculus
Experimental Endpoint: Kb (nM)
Write it as a number; the unit nM goes unstated.

Ask: # Kb lookup, item CCCNC1CCc2c(OC)ccc(OC)c2C1 (stereo unspecified)
Result: 18

Ask: # Kb lookup, item COc1ccc(SC)c2c1CC(N(C)C)CC2 (stereo unspecified)
Result: 9

Continuing:
Ask: # Kb lookup, item COc1ccc(OC)c2c1CCC(N(C)C)C2 (stereo unspecified)
Result: 15

Ask: # Kb lookup, item COc1ccc(OC)c(C(O)C(C)N)c1 (stereo unspecified)
Result: 11

Ask: # Kb lookup, item COc1ccc(Cl)c2c1CCC(N)C2 (stereo unspecified)
Result: 13

Ask: # Kb lookup, item COc1ccc(SC)c2c1CC(N)CC2 (stereo unspecified)
Result: 5

Each recorded value in this set is attributed to ChEMBL document CHEMBL1122004.
